The entries below come with measured z-score values attached.
# Experiment summary: FRG1 promoter luciferase signal modulators, primary screen, FRG1 inhibition for FSHD, cell-based, C2C12 myotubes, firefly/Renilla luciferase, luminescence (AID 1084)
# Experimental parameters: higher = more signal, called active from +8 up or from −8 down
Activity calls are given as the source filed them.
Measurement kind: z-score

                                   compound  measurement_kind            reading
0  O=C1OCCC/C=C\[C@H]2OC34C=CCN(Cn5nnc6ccccc65)C(=O)[C@H]3N(CCO)C(=O)[C@@H]4C12 (stereo partly drawn)           z-score   0.356 (inactive)
1  CC(C)C[C@@H]1NC(=O)[C@H]2C[C@@H](C(=O)NCCCCCCN)[C@@H](c3ccc(O)cc3)N2C1=O           z-score  -0.811 (inactive)
2  Cc1ccc(S[C@]2(C(=O)NCC(C)C)CC(=O)N(Cc3cc(C(F)(F)F)cc(C(F)(F)F)c3)[C@@H]2c2ccc(CO)cc2I)cc1           z-score  -0.286 (inactive)
3  CC(=O)N1Cc2ccccc2C[C@@]2(COC(c3ccc(OCCCO)cc3)=N2)C1=O           z-score   -0.41 (inactive)
4  CN(C)CCCC[C@@H]1NC(=O)[C@H]2C[C@@H](C(=O)NCCCCCNC(=O)CS)[C@@H](c3cccc(OCCO)c3)N2C1=O           z-score   0.498 (inactive)
5  O=C1NC(=O)C2C1C=CC(C(O)c1cccc3ccccc13)N2Nc1ccccn1 (stereo not drawn)           z-score   0.661 (inactive)
6  O=C1OCCC=C[C@H]2OC34C=CCN(CCN5CCOCC5)C(=O)[C@H]3N(CCCCCCO)C(=O)[C@@H]4C12 (stereo partly drawn)           z-score  -0.263 (inactive)
7  C=C[C@H](COC(C)=O)N(C(=O)OC(C)(C)C)S(=O)(=O)c1ccc(Br)cc1           z-score   -1.89 (inactive)

---

# System: XIP peptide (Xip251-270)
# Experiment summary: small-molecule binders of XIP peptide, primary screen, biochemical, small-molecule microarray, fluorescence 635/667 nm, 0.5 µg/mL protein (AID 1183)
# Experimental parameters: small-molecule microarray binding, fluorescence 635 nm; higher = more signal
Hi, to clarify the labels: YES covers composite z-score from 0.6 upward, NO covers anything below 0.6.

Compound	System	Label value
CCCCC(=C=CC[C@@H](O)c1ccccc1OCCO)CCO	XIP peptide (Xip251-270)	NO
COCCOC(=O)N1C(=O)[C@@]2(c3cc(C#CC4=CCCCC4)ccc31)[C@H](C(=O)N1CCc3cc(OC)c(OC)cc3C1)[C@H]1C(=O)O[C@H](c3ccccc3)[C@H](c3ccccc3)N1[C@@H]2c1ccc(OCCO)cc1	XIP peptide (Xip251-270)	NO
C=C(CCCC)/C(=C/C[C@@H](OC(C)=O)c1ccccc1OCCO)c1cnc2ccccc2c1	XIP peptide (Xip251-270)	NO
C=C(COC)/C(=C/C[C@H](OC(=O)c1ccncc1)c1ccc(OCCO)cc1)c1cnc2ccccc2c1	XIP peptide (Xip251-270)	YES
[N-]=[N+]=Nc1ccccc1[C@H]1OC(c2ccc(OCCCO)cc2)=N[C@@]1(Cc1ccccc1)C(=O)O	XIP peptide (Xip251-270)	YES
CCCN1C(=O)[C@]2(CCS(=O)(=O)c3ccccc3)N=C(c3ccc(OCCCO)cc3)O[C@@H]2c2ccccc21	XIP peptide (Xip251-270)	NO
COC(=O)[C@@]1(Cc2ccccc2)[C@H]2c3cc(C(=O)N4CCCC4)n(CC4CC4)c3C[C@H]2CN1C(=O)c1ccccc1	XIP peptide (Xip251-270)	YES
COC(=O)[C@@]1(Cc2ccc(F)cc2)[C@H]2c3cc(C(=O)N(C)C)n(Cc4nc5ccccc5[nH]4)c3C[C@H]2CN1C(=O)c1ccccc1	XIP peptide (Xip251-270)	YES
O=C1OCC=C[C@H]2OC34C=CCN(c5ccc6ccccc6c5)C(=O)[C@H]3N(CCCCCCO)C(=O)[C@@H]4[C@@H]12 (some centres undefined)	XIP peptide (Xip251-270)	NO
CCCCC=C[C@@H](NC(=O)Oc1cccc(C(F)(F)F)c1)c1ccccc1	XIP peptide (Xip251-270)	NO
CN(C)C(=O)[C@@]1(Cc2ccccc2)N=C(c2ccc(OCCCO)cc2)O[C@H]1c1ccccc1N=[N+]=[N-]	XIP peptide (Xip251-270)	YES
CN1C(=O)C2C=CC(C(O)c3cc(C(F)(F)F)cc(C(F)(F)F)c3)N(N3CCCCC3)C2C1=O (centres undefined)	XIP peptide (Xip251-270)	NO
C=CCOC(=O)[C@H]1[C@@H]2C(=O)O[C@@H](c3ccccc3)[C@@H](c3ccccc3)N2[C@@H](c2ccc(OCCOC(=O)[C@H]3C[C@H]4C(=O)N[C@@H](CC(C)C)C(=O)N4[C@H]3c3ccc(O)cc3)cc2)[C@]12C(=O)Nc1ccc(I)cc12	XIP peptide (Xip251-270)	YES
COc1ccc([Si](C)(C)[C@@H]2[C@@H](CC(=O)N3Cc4ccccc4C[C@H]3CO)O[C@]3(C(=O)N(C)c4c(Br)cc(C)cc43)[C@H]2C)cc1	XIP peptide (Xip251-270)	NO
